Settings: 298.15 K; 101 kPa; Liquid
endpoint: mass density (kg/m3)
Quick reminder: number only, in kg/m3, skip the unit.

# count of solved cases: 2
compound="CCC(C)=O [butanone]" reportedresult=798.1
compound="C1COCO1 [1,3-dioxolane]" reportedresult=1057.1

q: What value of mass density has been reported for the following compound? CCCC(=O)O [butanoic acid]
a: 952.8

q: What value of mass density has been reported for the following compound? CCCCN [1-butanamine]
a: 731.9

q: What value of mass density has been reported for the following compound? C1COCCO1 [1,4-dioxane]
a: 1026.5

q: What value of mass density has been reported for the following compound? CCCCOC(C)=O [butyl ethanoate]
a: 874.4
